target: hGPR35a (Homo sapiens); construct: FLAG-hGPR35a (N-terminal FLAG tag); with Gα13/Gβ3/Gγ9; assay: BRET G protein dissociation (TRUPATH-like) in Flp-In T-REx […] cells expressing FLAG-hGPR35a
Sequence (Q9HC97 whole entry): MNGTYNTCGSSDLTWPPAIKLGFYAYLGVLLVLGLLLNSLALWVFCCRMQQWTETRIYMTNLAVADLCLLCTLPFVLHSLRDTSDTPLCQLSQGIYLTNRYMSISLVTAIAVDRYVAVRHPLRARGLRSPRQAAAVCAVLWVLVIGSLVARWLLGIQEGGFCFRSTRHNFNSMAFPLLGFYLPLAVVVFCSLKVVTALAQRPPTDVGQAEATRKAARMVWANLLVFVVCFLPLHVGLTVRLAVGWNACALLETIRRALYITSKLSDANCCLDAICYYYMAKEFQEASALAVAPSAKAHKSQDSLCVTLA
Sequence (Q14344 whole entry partner): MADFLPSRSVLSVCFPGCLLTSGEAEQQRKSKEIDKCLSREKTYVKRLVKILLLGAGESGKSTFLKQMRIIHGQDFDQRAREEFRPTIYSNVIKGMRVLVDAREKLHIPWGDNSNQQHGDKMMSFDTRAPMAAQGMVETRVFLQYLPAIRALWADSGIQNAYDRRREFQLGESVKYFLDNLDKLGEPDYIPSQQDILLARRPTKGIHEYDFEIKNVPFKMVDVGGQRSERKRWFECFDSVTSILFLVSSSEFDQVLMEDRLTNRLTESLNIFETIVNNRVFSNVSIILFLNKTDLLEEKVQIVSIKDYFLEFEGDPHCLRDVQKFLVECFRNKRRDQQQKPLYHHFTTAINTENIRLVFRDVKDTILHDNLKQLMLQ
Sequence (P16520 whole entry partner): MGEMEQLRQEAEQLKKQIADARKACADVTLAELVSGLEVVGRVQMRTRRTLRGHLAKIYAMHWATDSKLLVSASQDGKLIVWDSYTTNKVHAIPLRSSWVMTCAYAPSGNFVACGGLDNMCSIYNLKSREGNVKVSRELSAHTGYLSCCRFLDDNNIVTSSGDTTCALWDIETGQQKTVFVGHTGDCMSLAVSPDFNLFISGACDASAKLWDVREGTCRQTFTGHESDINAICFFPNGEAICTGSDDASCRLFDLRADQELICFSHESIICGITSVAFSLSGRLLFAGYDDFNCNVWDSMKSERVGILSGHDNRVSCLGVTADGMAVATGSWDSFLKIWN
Sequence (O14610 1-66 partner): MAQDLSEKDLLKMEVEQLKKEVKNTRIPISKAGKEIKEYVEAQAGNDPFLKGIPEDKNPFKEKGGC
property.measured: EC50 (nM)
# value in nM; strip the unit string

Bench note: what EC50 did N#Cc1cc(NC(=O)C(=O)O)c(Cl)c(NC(=O)C(=O)O)c1 [lodoxamide] show?
1.48
